Tested on: HEK-293T
methodSummary: Multiplex assay against HEK293T
Format: toxicity, cell-based
conditionDescription: human, 48 h, 1 µM, compound concentration 1 uM, replicate 2
endpointLabel: Total Cell Count

{"columns": ["compound", "measured"],
 "data": [
  ["COc1cc2c(NC3CCN(C(C)C)CC3)nc(N3CCC(F)(F)CC3)nc2cc1OCCCN1CCCC1", 508],
  ["Nc1nc2c(c(N3CCNCC3)n1)CCC1=C2[C@@H]2CCCC[C@@H]2O1", 420],
  ["CCCn1c(=O)c2[nH]c(C34CC5CC(CC3C5)C4)nc2n(CCC)c1=O [ROLOFYLLINE]", 417],
  ["CCc1cc2c(cc1CC)CC(NC[C@H](O)c1ccc(O)c3[nH]c(=O)ccc13)C2 [INDACATEROL]", 448],
  ["Cc1cc2c(cc1N1C(=O)c3cccc4c(CCCO)ccc(c34)C1=O)n(C)c(=O)n2C", 270],
  ["CCC(=O)O[C@]1(C(=O)SCF)[C@H](C)C[C@H]2[C@@H]3C[C@H](F)C4=CC(=O)C=C[C@]4(C)[C@@]3(F)[C@@H](O)C[C@@]21C [FLUTICASONE PROPIONATE]", 621],
  ["CC(=O)c1cc(-c2cc(C(=O)NC3CC3)ccc2C)c2ncccn12", 595],
  ["Cl.Cl.Nc1ncnc2c1c(-c1cccc(OCc3ccccc3)c1)cn2[C@H]1C[C@@H](CN2CCC2)C1", 263],
  ["Nc1ccc(C(=O)Nc2cccc(-c3nc(N4CCOCC4)c4oc5ncccc5c4n3)c2)cn1", 187],
  ["Cc1nc(Cc2cccc(C(F)(F)F)c2)sc1-c1ccc(C(N)=O)nc1 [TP-024n]", 464]
]}

---

Tested on: HEK-293T
methodSummary: Multiplex assay against HEK293T
Type: toxicity, cell-based
conditionDescription: human, 24 h, 1 µM, compound concentration 1 uM, replicate 1
endpointLabel: Population Apoptotic (%)

{"columns": ["compound", "uom", "measured"],
 "data": [
  ["CNc1oc(-c2cccc3ccccc23)nc1C#N", "%", 38],
  ["CNC(=O)c1cc(Oc2ccc(NC(=O)Nc3cc(C(C)(C)C)nn3-c3ccc4ncccc4c3)c(F)c2)ccn1", "%", 13],
  ["CC(=O)c1cc(-c2cc(C(=O)NC3CC3)ccc2C)c2ncccn12", "%", 51],
  ["CCOc1cc2ncc(C#N)c(Nc3ccc(OCc4cccc(F)c4)c(Cl)c3)c2cc1NC(=O)/C=C/CN(C)C", "%", 31],
  ["Cc1cn(-c2cc(NC(=O)c3ccc4c(c3)CN(c3cncnc3)C[C@@H]4C)cc(C(F)(F)F)c2)cn1", "%", 23],
  ["O=C(O)c1ccc2cc(-c3ccc(O)c(C45CC6CC(CC(C6)C4)C5)c3)ccc2c1", "%", 37],
  ["CCOc1cc(N2CCC(O)CC2)ccc1Nc1ncc2c(n1)N(C1CCCC1)CCC(=O)N2C", "%", 19],
  ["Cc1cc2c(cc1N1C(=O)c3cccc4c(CCCO)ccc(c34)C1=O)n(C)c(=O)n2C", "%", 50],
  ["c1ccc2oc(-c3csc(C4CCN(Cc5nc6ncccc6[nH]5)CC4)n3)cc2c1", "%", 20],
  ["CCC(=O)O[C@]1(C(=O)SCF)[C@H](C)C[C@H]2[C@@H]3C[C@H](F)C4=CC(=O)C=C[C@]4(C)[C@@]3(F)[C@@H](O)C[C@@]21C [FLUTICASONE PROPIONATE]", "%", 59],
  ["Cl.Cl.Nc1ncnc2c1c(-c1cccc(OCc3ccccc3)c1)cn2[C@H]1C[C@@H](CN2CCC2)C1", "%", 70],
  ["CN(C)C/C=C/C(=O)Nc1cc2c(Nc3ccc(F)c(Cl)c3)ncnc2cc1O[C@H]1CCOC1.O=C(O)/C=C\\C(=O)O.O=C(O)/C=C\\C(=O)O [AFATINIB DIMALEATE]", "%", 25],
  ["CC(C)Oc1ccc(C(=O)N[C@H](CNC(=O)CN(C)C)Cc2ccc(-c3cn4cccc([C@H](C)O)c4n3)cc2)cc1Cl [GSK-923295A]", "%", 10],
  ["Cc1nc(Cc2cccc(C(F)(F)F)c2)sc1-c1ccc(C(N)=O)nc1 [TP-024n]", "%", 49],
  ["COc1cc(N2CCC(N(C)C)CC2)ccc1Nc1ncc(Cl)c(Nc2ccccc2P(C)(C)=O)n1", "%", 14]
]}

---

Test system: Fibroblast
methodSummary: Multiplex assay against human fibroblast
Type: toxicity, cell-based
conditionDescription: 24 h, 10 µM, compound concentration 10 uM, replicate 1
This listing pairs compounds with measured Population Hoechst High Intensity Objects (%).
endpointLabel: Population Hoechst High Intensity Objects (%)

{"columns": ["compound", "measuredTarget", "uom", "measured"],
 "data": [
  ["CN(C)CCOc1ccc(-c2nc(-c3ccncc3)c(-c3ccc4c(c3)CC/C4=N\\O)[nH]2)cc1 [SB590885]", "Fibroblast", "%", 14],
  ["CCOc1cc2ncc(C#N)c(Nc3ccc(OCc4cccc(F)c4)c(Cl)c3)c2cc1NC(=O)/C=C/CN(C)C [HKI-357]", "Fibroblast", "%", 19],
  ["CC(C)(C)c1cnc(CSc2cnc(NC(=O)C3CCNCC3)s2)o1 [BMS-387032]", "Fibroblast", "%", 8],
  ["CC(=O)c1cc(-c2cc(C(=O)NC3CC3)ccc2C)c2ncccn12", "Fibroblast", "%", 15],
  ["CCc1cc2c(cc1CC)CC(NC[C@H](O)c1ccc(O)c3[nH]c(=O)ccc13)C2 [INDACATEROL]", "Fibroblast", "%", 33],
  ["c1ccc2oc(-c3csc(C4CCN(Cc5nc6ncccc6[nH]5)CC4)n3)cc2c1", "Fibroblast", "%", 11],
  ["Cc1nc(Cc2cccc(C(F)(F)F)c2)sc1-c1ccc(C(N)=O)nc1 [TP-024n]", "Fibroblast", "%", 13],
  ["Cc1cn(-c2cc(NC(=O)c3ccc4c(c3)CN(c3cncnc3)C[C@@H]4C)cc(C(F)(F)F)c2)cn1", "Fibroblast", "%", 16],
  ["CN(C)C/C=C/C(=O)Nc1cc2c(Nc3ccc(F)c(Cl)c3)ncnc2cc1O[C@H]1CCOC1.O=C(O)/C=C\\C(=O)O.O=C(O)/C=C\\C(=O)O [AFATINIB DIMALEATE]", "Fibroblast", "%", 38],
  ["COc1cc2c(NC3CCN(C(C)C)CC3)nc(N3CCC(F)(F)CC3)nc2cc1OCCCN1CCCC1", "Fibroblast", "%", 37],
  ["Nc1nc2c(c(N3CCNCC3)n1)CCC1=C2[C@@H]2CCCC[C@@H]2O1", "Fibroblast", "%", 45],
  ["CCC(=O)O[C@]1(C(=O)SCF)[C@H](C)C[C@H]2[C@@H]3C[C@H](F)C4=CC(=O)C=C[C@]4(C)[C@@]3(F)[C@@H](O)C[C@@]21C [FLUTICASONE PROPIONATE]", "Fibroblast", "%", 12],
  ["COc1cc2c(Nc3ccc(NC(=O)c4ccccc4)cc3)ncnc2cc1OCCCN1CCOCC1", "Fibroblast", "%", 22],
  ["N#Cc1cnc(Nc2cc(NC[C@H]3CNCCO3)c(C(F)(F)F)cn2)cn1 [SRA-737]", "Fibroblast", "%", 18],
  ["COc1cc(N2CCC(N(C)C)CC2)ccc1Nc1ncc(Cl)c(Nc2ccccc2P(C)(C)=O)n1", "Fibroblast", "%", 13],
  ["Cc1cc2c(cc1N1C(=O)c3cccc4c(CCCO)ccc(c34)C1=O)n(C)c(=O)n2C", "Fibroblast", "%", 15],
  ["Cl.Cl.Nc1ncnc2c1c(-c1cccc(OCc3ccccc3)c1)cn2[C@H]1C[C@@H](CN2CCC2)C1", "Fibroblast", "%", 48],
  ["CCn1c(-c2nonc2N)nc2cnc(Oc3cccc(NC(=O)c4ccc(OCCN5CCOCC5)cc4)c3)cc21 [GSK-269962A]", "Fibroblast", "%", 12]
]}

---

This listing pairs compounds with measured Population Mitotic Cells (%).
Tested on: HEK-293T
methodSummary: Multiplex assay against HEK293T
Assay type: toxicity, cell-based
conditionDescription: human, 24 h, 1 µM, compound concentration 1 uM, replicate 2

{"columns": ["compound", "measuredTarget", "Population Mitotic Cells (%)"],
 "data": [
  ["Nc1ccc(C(=O)Nc2cccc(-c3nc(N4CCOCC4)c4oc5ncccc5c4n3)c2)cn1", "HEK-293T", 59],
  ["CCC(=O)O[C@]1(C(=O)SCF)[C@H](C)C[C@H]2[C@@H]3C[C@H](F)C4=CC(=O)C=C[C@]4(C)[C@@]3(F)[C@@H](O)C[C@@]21C [FLUTICASONE PROPIONATE]", "HEK-293T", 92],
  ["O=C(O)c1ccc2cc(-c3ccc(O)c(C45CC6CC(CC(C6)C4)C5)c3)ccc2c1", "HEK-293T", 86],
  ["COc1cc2c(Nc3ccc(NC(=O)c4ccccc4)cc3)ncnc2cc1OCCCN1CCOCC1", "HEK-293T", 97],
  ["CCOc1cc2ncc(C#N)c(Nc3ccc(OCc4cccc(F)c4)c(Cl)c3)c2cc1NC(=O)/C=C/CN(C)C", "HEK-293T", 96],
  ["CNC(=O)c1nn(C)c2c1C(C)(C)Cc1cnc(Nc3ccc(N4CCN(C)CC4)cc3)nc1-2", "HEK-293T", 65],
  ["Cl.Cl.NC1(c2ccc(-c3nc4ccn5c(=O)[nH]nc5c4cc3-c3ccccc3)cc2)CCC1", "HEK-293T", 91],
  ["COc1cc(N2CCC(N(C)C)CC2)ccc1Nc1ncc(Cl)c(Nc2ccccc2P(C)(C)=O)n1", "HEK-293T", 87],
  ["Nc1nc2c(c(N3CCNCC3)n1)CCC1=C2[C@@H]2CCCC[C@@H]2O1", "HEK-293T", 81],
  ["CC(C)N1CCC(C)(C)c2cc(C#Cc3ccc(C(=O)O)cc3)ccc21", "HEK-293T", 85],
  ["CCCn1c(=O)c2[nH]c(C34CC5CC(CC3C5)C4)nc2n(CCC)c1=O", "HEK-293T", 85],
  ["CNc1oc(-c2cccc3ccccc23)nc1C#N", "HEK-293T", 67],
  ["Cl.Cl.Nc1ncnc2c1c(-c1cccc(OCc3ccccc3)c1)cn2[C@H]1C[C@@H](CN2CCC2)C1", "HEK-293T", 32],
  ["CCn1c(-c2nonc2N)nc2cnc(Oc3cccc(NC(=O)c4ccc(OCCN5CCOCC5)cc4)c3)cc21 [GSK-269962A]", "HEK-293T", 88],
  ["CC(=O)c1cc(-c2cc(C(=O)NC3CC3)ccc2C)c2ncccn12", "HEK-293T", 89],
  ["CCc1cc2c(cc1CC)CC(NC[C@H](O)c1ccc(O)c3[nH]c(=O)ccc13)C2", "HEK-293T", 77],
  ["Cc1cn(-c2cc(NC(=O)c3ccc4c(c3)CN(c3cncnc3)C[C@@H]4C)cc(C(F)(F)F)c2)cn1", "HEK-293T", 93]
]}
